Value source: PubChem BioAssay (NCI)

Tested on: SK-OV-3 ovarian
Measurement Protocol: NCI tumour cell line growth inhibition, 48 h
Measure Name: TGI

Some solved entries appear below for comparison.
[
  {
    "Molecule": "CC(/C=C/C=C\\C=C\\C=C(/C)C(=O)NC(C)CO)=C\\C(C)C(O)/C(C)=C/C(C)CCc1ccccc1 (stereo unspecified)",
    "TGI": "64 µM"
  },
  {
    "Molecule": "Clc1cc2nc[nH]c2cc1Cl",
    "TGI": "> 100 µM"
  },
  {
    "Molecule": "CCCCCCCCCCCCCCCCOP(=O)(O)OP(=O)(O)OCC1OC(n2cnc3c(N)ncnc32)C(O)C1O (stereo unspecified)",
    "TGI": "> 100 µM"
  },
  {
    "Molecule": "CCC1CCC2C3CC=C4CC(OC(C)=O)C(N)CC4(C)C3CCC12C (stereo unspecified)",
    "TGI": "24.1 µM"
  },
  {
    "Molecule": "NCc1ccc(O)c(O)c1O",
    "TGI": "> 100 µM"
  }
]

Query: What TGI appears in the records for this molecule with SK-OV-3 ovarian? `Nc1nc(=O)c2[nH]cnc2n1O`
Reply: > 100 µM

Query: Would you mind doing O=C1OCCC12CN(Cc1ccccc1)N=N2 (stereo unspecified) as well?
Reply: > 100 µM

Query: Another molecule to look at: `COc1cccc([C@@H]2C/C(=N\NC(=O)C(=O)N[C@@H](C)c3ccccc3)c3cc4c(cc3N2)OCO4)c1`
Reply: > 100 µM

Query: Try this molecule too: O=C1CC(c2ccccc2)NCCCCN2CC(CN1)C(C(O)c1ccccc1)C2=O (stereo unspecified)
Reply: > 100 µM

Query: Note, next up: `c1cc2c(cc1NC1=NCCO1)CCCC2`
Reply: 27.1 µM

Query: Also `O=S1(=O)OCc2ccccc21` ?
Reply: > 100 µM
